target: Solute carrier family 2, facilitated glucose transporter member 1 (Homo sapiens) (UniProt P11166); assay: ST_JUDE_LEISH: Cytotoxicity at 2uM final concentration against transgenic Leishmania Mexicana promastigotes LmGLUT1 that are glucose transport deficient and complemented with the human glucose transporter GLUT1. Activity is measured by DNA content using SYBR green in vitro; type: functional
Sequence (P11166 whole entry): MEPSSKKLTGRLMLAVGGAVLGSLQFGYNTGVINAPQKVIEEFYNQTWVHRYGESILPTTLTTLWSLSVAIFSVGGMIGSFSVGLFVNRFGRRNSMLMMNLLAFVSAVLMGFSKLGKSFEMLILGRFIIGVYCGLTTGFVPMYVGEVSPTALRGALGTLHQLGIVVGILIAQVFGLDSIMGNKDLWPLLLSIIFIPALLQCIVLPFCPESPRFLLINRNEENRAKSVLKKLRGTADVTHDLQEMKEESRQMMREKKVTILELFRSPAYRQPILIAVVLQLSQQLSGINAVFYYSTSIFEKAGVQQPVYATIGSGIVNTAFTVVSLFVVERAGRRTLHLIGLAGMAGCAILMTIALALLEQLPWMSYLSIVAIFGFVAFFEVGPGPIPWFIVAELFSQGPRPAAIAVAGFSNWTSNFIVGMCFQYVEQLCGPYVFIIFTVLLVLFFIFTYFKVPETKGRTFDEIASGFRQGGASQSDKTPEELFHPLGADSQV
OBSERVABLE: inhibition
Quick note: number first, unit second.

Reported inhibition, molecule CC(C)C(C)(C#N)NC(=O)CSc1nc2ccc([N+](=O)[O-])cc2s1 (centres undefined) : ____
-0.35%

Reported inhibition, molecule COc1cccc(CNc2ncc(-c3ccsc3)c(-c3nccs3)n2)c1 : ____
-0.5%

Reported inhibition, molecule CN(C)c1ccc(-c2csc(C(=O)NCC3CCN(CCC(C)(C)C)C3)c2)cc1 (centres undefined) : ____
-0.84%

Reported inhibition, molecule COc1ccc(CN(C)CC(O)COc2ccc(NC(=O)c3cccc4c(=O)c5cccc(OC)c5[nH]c34)cc2)cc1OC (centres undefined) : ____
7.62%

Reported inhibition, molecule COc1ccc2nccc([C@@H](O)CN3CCC(NC(=O)[C@@H]4Cc5ccccc5CN4C(=O)OC(C)(C)C)CC3)c2c1 : ____
8.19%

Reported inhibition, molecule COc1ccccc1C1CCN(C2CCC(NC(=O)/C=C/c3cc(F)c(F)cc3F)CC2)CC1 (centres undefined) : ____
2.17%

Reported inhibition, molecule CCCCCC(C)(C)NC[C@@H](O)[C@H](Cc1ccccc1)NC(=O)c1cc(NCC)cc(N2CCCC2=O)c1 : ____
-0.4%

Reported inhibition, molecule Cc1nc(-c2ccc(-c3ccc(C(=O)Nc4ccc(C(C)C)c(OCCN(C)C)c4)cc3)c(C)c2)no1 : ____
4.64%

Reported inhibition, molecule CN(C)CCN(C)Cc1cccc(-c2cccc(NC(=O)c3cccc(C#N)c3)c2)c1 : ____
2.87%

Reported inhibition, molecule O=C(NC1CCN(c2ccnc3ccccc23)C1)c1cccc(C(F)(F)F)c1 (centres undefined) : ____
2.99%

Reported inhibition, molecule COc1ccc2[nH]c(C)cc(=NN=Cc3cccc(Cl)c3)c2c1 : ____
-0.18%

Reported inhibition, molecule CCN(CCCN1CCCCC1)c1cc(C)nc(Nc2cccc(C(F)(F)F)c2C)n1 : ____
-0.36%

Reported inhibition, molecule O=C(NCCCCN1CCC(c2cccc3ccccc23)CC1)c1ccc(-c2ccc(C(F)(F)F)cn2)cc1 : ____
2.62%

Reported inhibition, molecule c1ccc(CSC2=NNC(c3ccccn3)S2)cc1 (centres undefined) : ____
0.82%

Reported inhibition, molecule COc1cccc(CN2CCN(C(c3ccccc3)c3ccccc3)CC2)c1O : ____
6.87%

Reported inhibition, molecule CN(C)CCNCc1ccc(-c2ccc3c(Nc4ccc(Oc5ccccc5)cc4)ccnc3c2)o1 : ____
-1.6%

Reported inhibition, molecule Cn1nccc1C(=O)NCCNCc1cccc(-c2ccc(-c3nc4ccccc4[nH]3)cc2)c1 : ____
0.23%

Reported inhibition, molecule Cc1ccc(NC(=O)Nc2ccc(I)c(OCCN(C)C)c2)cc1Cl : ____
10.6%

Reported inhibition, molecule CCOc1cc(C2C(C(=O)OC(C)C)=C(C)NC3=C2C(=O)CC(c2ccc(Cl)cc2)C3)ccc1OC(C)=O (centres undefined) : ____
6.58%

====

biological target: Solute carrier family 2, facilitated glucose transporter member 1 (Homo sapiens) (UniProt P11166); experiment: ST_JUDE_LEISH: Cytotoxicity at 2uM final concentration against transgenic Leishmania Mexicana promastigotes LmGLUT1 that are glucose transport deficient and complemented with the human glucose transporter GLUT1. Activity is measured by DNA content using SYBR green in vitro; format: functional
Exercise: for every item that follows, state its recorded inhibition.
Quick note: number first, unit second.

Reported inhibition, molecule N#Cc1ccccc1C(=O)N(Cc1cncn1Cc1cccc(F)c1)CC1CC1 : ____
6.38%

Reported inhibition, molecule Cc1cccc(-c2c(C)nc(N)nc2N)c1 : ____
4.96%

Reported inhibition, molecule COc1ccc2nccc([C@@H](O)CN3CCC(NCC4COc5ccccc5O4)CC3)c2c1 (stereo partly drawn) : ____
7.53%

Reported inhibition, molecule CCCCNC(=O)[C@H](CC1CCCCC1)NC(=O)c1ccc(O)c(-c2cccc(C(F)(F)F)c2)c1 : ____
2.16%

Reported inhibition, molecule CCSc1ccccc1COc1c(C)nc(N)nc1N : ____
6.84%

Reported inhibition, molecule COc1ccc(S(=O)(=O)NC2CCN(c3ccc(C(F)(F)F)cc3NC(=O)OCC(C)C)CC2)cc1 : ____
0.36%

Reported inhibition, molecule CN(CC(=O)Nc1ccc(F)c(F)c1F)c1ncnc2sc(-c3ccccc3)cc12 : ____
3.92%

Reported inhibition, molecule COc1c(C2CCN(CCCCNC(=O)c3ccc(NC(=O)c4ccc(C#N)cc4)cc3)CC2)ccc2c1CCCC2 : ____
1.73%

Reported inhibition, molecule c1cc(CN2CCCCC2)cc(-c2csc(-c3nc4ccccc4[nH]3)c2)c1 : ____
5.65%

Reported inhibition, molecule CCCC(=O)Nc1ccc(OCCN(Cc2ccccc2OC(F)(F)F)c2ccc(C(F)(F)F)c(C#N)c2)cc1 : ____
3.46%

Reported inhibition, molecule CCN(CC)CCOc1ccc(C(O)(C#CC(O)(c2ccc(C)cc2)c2ccc(OCCN(CC)CC)cc2)c2ccc(C)cc2)cc1 (stereo not drawn) : ____
7.79%

Reported inhibition, molecule COc1ccccc1C1CCN(C2CCC(NC(=O)/C=C/c3cc(F)cc(F)c3)CC2)CC1 (stereo not drawn) : ____
-1.84%

Reported inhibition, molecule COC(=O)c1cc2cccc(NC[C@@H](C)NC[C@H](O)c3cccc(Cl)c3)c2[nH]1 : ____
-0.1%

Reported inhibition, molecule Cc1cc(O)c(CN(C)Cc2ccc3c(c2)OCCO3)cc1C(C)C : ____
4.86%

Reported inhibition, molecule CCN(CC)Cc1cc(Nc2c3ccc(Cl)cc3nc3cccc(OC)c23)ccc1O : ____
7.41%

Reported inhibition, molecule c1ccc(COc2ccc(Nc3ncnc4ccc(-c5ccc(CN6CCSCC6)o5)cc34)cc2)cc1 : ____
10.9%

Reported inhibition, molecule CCC[C@@H]([C@@H](CC1CCCCC1)C(=O)NC(C(=O)Nc1nccs1)C(CC)c1ccccc1)N(O)C=O (stereo partly drawn) : ____
0.29%

Reported inhibition, molecule COc1c(C2CCN(CCCCNC(=O)c3oc(-c4ccc(Cl)cc4)cc3CO)CC2)ccc2c1CCCC2 : ____
1.58%

Reported inhibition, molecule Cc1nc2ccc(F)cc2n1C1CCN(C(=O)Cc2ccc(F)c(F)c2)CC1 : ____
-1.6%

Reported inhibition, molecule O=C(C=Cc1ccc(Cl)c(Cl)c1)NCCCCCN1CCC(CCNC(=O)C(c2ccccc2)c2ccccc2)CC1 : ____
3.47%

Reported inhibition, molecule Cc1cc(OCCCN2CCC(NC(=O)c3ccc(Br)cc3)C2)c2ccccc2n1 (stereo not drawn) : ____
24.3%

Reported inhibition, molecule O=[N+]([O-])c1cccc(CNCC2CCN(Cc3ccc(C(F)(F)F)cc3)CC2)c1 : ____
0.44%

Reported inhibition, molecule CCN(CC)S(=O)(=O)c1ccc(Cl)c(C(=O)Nc2ccc3nc(C)sc3c2)c1 : ____
-2.24%

Reported inhibition, molecule O=C(Nc1ccc2ccccc2n1)c1ccccc1-c1ccccc1 : ____
-0.59%

Reported inhibition, molecule CC(C)c1nc(N2CCN(C(=S)NCc3ccccc3)CC2)c(C#N)c2c1COC(C)(C)C2 : ____
-0.1%

Reported inhibition, molecule CC(Cc1ccc(OCCN2CCN(c3ccccc3)CC2)cc1)NCC(O)c1cccc(Cl)c1F (stereo not drawn) : ____
2.22%

Reported inhibition, molecule N#Cc1cc([N+](=O)[O-])ccc1-n1nc(C(N)=O)n(Cc2cccc(F)c2)c1=S : ____
11.3%

Reported inhibition, molecule CNC(=O)c1cnc(Nc2ccc(OCC(O)CN(C)C)cc2)nc1Nc1cccc([N+](=O)[O-])c1 (stereo not drawn) : ____
3.44%

Reported inhibition, molecule Cc1cccc2nc(-c3ccc(-c4cccc(NC(=O)C(C)CN5CCN(C)CC5)c4)cc3)[nH]c12 (stereo not drawn) : ____
3.33%

Reported inhibition, molecule CCCOC(=O)c1ccc(OCCCON2C(=N)N=C(N)NC2(C)C)cc1 : ____
2.28%

Reported inhibition, molecule CCCOc1cc2c(cc1OCCC)C(C=Cc1ccc(Cl)cc1Cl)=NC(C)C2 (stereo not drawn) : ____
94.6%

Reported inhibition, molecule COc1ccc2nccc([C@@H](O)CN3CCC(NCCOc4ccccc4C#N)CC3)c2c1 : ____
4.87%

Reported inhibition, molecule CCN(CC)CCN(Cc1ccc(-c2ccc(C(F)(F)F)cc2)cc1)C(=O)Cn1c(CCc2cc(F)c(F)c(F)c2)nc(=O)c2ccccc21 : ____
9.62%

Reported inhibition, molecule O=C(/C=C/c1ccc(F)cc1)NC1CCC(CCN2CCc3ccc(-n4cccn4)cc3CC2)CC1 (stereo not drawn) : ____
11.7%

Reported inhibition, molecule CC(=O)Nc1cccc(C(=O)Nc2ccc(-c3cccc(-c4nc5cccc(C)c5[nH]4)c3)cc2)c1 : ____
0.48%

Reported inhibition, molecule Cc1cc(=NN=Cc2ccccn2)c2cc(F)ccc2[nH]1 : ____
4.3%

Reported inhibition, molecule COc1cc2nc(C)nc(Nc3ccc4c(ccn4Cc4ccccc4)c3)c2cc1OC : ____
5.04%

Reported inhibition, molecule O=C(C=CC(=O)N1CCCCC1)NCc1ccccc1 : ____
2.97%

The values you see were collected from ChEMBL document CHEMBL3433997.
